# assay_notes: Cmax in PK/PD in vitro model infused with 1g at 8hr intervals
# Assay type: ADME
# Parameters: dose 1 g
# run_parameters: iv
measurement_kind: Cmax
Could you give the number and then its unit, please?

Request: Requested field: Cmax. Item: C[C@@H](O)[C@H]1C(=O)N2C(C(=O)O)=C(S[C@@H]3CN[C@H](C(=O)N(C)C)C3)[C@H](C)[C@H]12 [MEROPENEM]
Response: 56.1 µg/mL

---

# assay_notes: Cmax in PK/PD in vitro model infused with 2g at 8hr intervals
# Type: ADME
# Parameters: dose 2 g
# run_parameters: iv
measurement_kind: Cmax (µg/mL)
Just the number in µg/mL, nothing appended.

Request: Requested field: Cmax. Item: CC(C)(O/N=C(\C(=O)N[C@@H]1C(=O)N2C(C(=O)[O-])=C(C[n+]3ccccc3)CS[C@H]12)c1csc(N)n1)C(=O)O [CEFTAZIDIME]
Response: 174

Source listed as ChEMBL document CHEMBL1137630.
